- TARGET: recombinant mouse sEH (MsEH) (Mus musculus, UniProt P34914)
- Sequence (P34914 whole entry): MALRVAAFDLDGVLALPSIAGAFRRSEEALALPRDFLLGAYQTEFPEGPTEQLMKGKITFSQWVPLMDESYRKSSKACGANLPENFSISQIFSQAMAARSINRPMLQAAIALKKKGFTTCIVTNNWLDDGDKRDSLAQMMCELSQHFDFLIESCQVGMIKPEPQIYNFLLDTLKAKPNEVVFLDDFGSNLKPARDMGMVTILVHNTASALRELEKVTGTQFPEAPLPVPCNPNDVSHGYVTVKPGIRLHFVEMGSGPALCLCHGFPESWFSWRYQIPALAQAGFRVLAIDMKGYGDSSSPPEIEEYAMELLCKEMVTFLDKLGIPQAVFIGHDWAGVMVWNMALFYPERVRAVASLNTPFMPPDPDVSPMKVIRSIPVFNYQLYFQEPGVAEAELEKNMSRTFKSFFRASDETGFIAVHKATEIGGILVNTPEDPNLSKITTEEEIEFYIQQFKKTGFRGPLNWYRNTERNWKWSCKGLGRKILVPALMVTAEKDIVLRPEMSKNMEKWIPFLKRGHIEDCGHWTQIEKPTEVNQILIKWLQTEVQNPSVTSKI
- ASSAY NOTES: Inhibition of recombinant mouse sEH (MsEH)
- Assay type: biochemical
- TEST PARAMETERS: Table 1; MsEH 0.13 μM; read-out: Mouse sEH IC50
pIC50: −log10 of the molar value.
MEASURED ATTRIBUTE: pIC50

CC(C)c1ccc(NC(=O)NCC2CCCCC2)cc1 :: 7.22
O=C(NC12CC3CC(CC(C3)C1)C2)NC12CC3CC(CC(C3)C1)C2 :: 7.30

I: O=C(NC1CCCCC1)NC1CCCc2ccccc21 (centres unmarked)
II: CCCCCCCCCCCCNC(=O)NC(C)(C)CC
Q: Lower value for measured pIC50? Options: I , II Use the label to indicate which entry you chose.
A: II
(II: 6.30, I: 7.30)
